System: 845751-090-R-J2-PDC tumor spheroid viability;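 further: spheroids exposed to compounds for 7 days before readout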
Experiment: Anticancer human tumor 845751-090-R-J2-PDC patient-derived head and neck squamous carcinoma cell line growth inhibition [IpAb]; active means viability on the fitted dose curve at most 10% of control; inactive means the rest
Settings: second compound 0.1 µM; first compound 0.949 µM; spheroids with HUVEC and MSC
Labels: active, inactive

- Molecule: "Cn1cnc2c(F)c(Nc3ccc(Br)cc3Cl)c(C(=O)NOCCO)cc21 + CC(C)NCC(C(=O)N1CCN(c2ncnc3c2C(C)CC3O)CC1)c1ccc(Cl)cc1"
  Target: "845751-090-R-J2-PDC tumor spheroid viability"
  Label Class: "inactive"
- Molecule: "Cn1cnc2c(F)c(Nc3ccc(Br)cc3Cl)c(C(=O)NOCCO)cc21 + CCN1CCN(Cc2ccc(Nc3ncc(F)c(-c4cc(F)c5nc(C)n(C(C)C)c5c4)n3)nc2)CC1"
  Target: "845751-090-R-J2-PDC tumor spheroid viability"
  Label Class: "inactive"
- Molecule: "CC(C)(C)c1cnc(CSc2cnc(NC(=O)C3CCNCC3)s2)o1 + CC(C)NCC(C(=O)N1CCN(c2ncnc3c2C(C)CC3O)CC1)c1ccc(Cl)cc1"
  Target: "845751-090-R-J2-PDC tumor spheroid viability"
  Label Class: "active"
- Molecule: "CC(C)(C)c1cnc(CSc2cnc(NC(=O)C3CCNCC3)s2)o1 + CCN1CCN(Cc2ccc(Nc3ncc(F)c(-c4cc(F)c5nc(C)n(C(C)C)c5c4)n3)nc2)CC1"
  Target: "845751-090-R-J2-PDC tumor spheroid viability"
  Label Class: "active"
